Reference for the values: patent US9409905B2

Entries and their MIC values follow.
Tested on: E. coli ELZ4251
Experiment: Antibacterial activity, MIC, multi-drug resistant clinical isolate (Table 3)
Format: cell-based
Conditions: Escherichia coli

# smiles.repr, MIC
measured = [
    ("CCCCCNCc1cc2cc(-c3[nH]c(=O)c(C(=O)O)c(O)c3CC)ccc2n1C", "12.5 to 150 µg/mL"),
    ("CCc1cc(C(=O)O)c(=O)[nH]c1-c1ccc2sccc2c1", "12.5 to 150 µg/mL"),
    ("CCc1c(-c2ccc3c(c2)cc(CN2CC(N)C2)n3C)[nH]c(=O)c(C(=O)O)c1O", "12.5 to 150 µg/mL"),
    ("Cn1ccc2cc(-c3[nH]c(=O)c(C(=O)O)c(O)c3C3CC3)ccc21", "1 to 3.5 µg/mL"),
    ("CCc1c(-c2ccc3c(c2)cc(CNC(C)(C)C)n3C)[nH]c(=O)c(C(=O)O)c1O", "3.5 to 12.5 µg/mL"),
    ("CCc1c(-c2ccc3c(c2)cc(CN2CCN(C)CC2)n3C)[nH]c(=O)c(C(=O)O)c1O", "12.5 to 150 µg/mL"),
    ("CCc1c(-c2ccc3c(ccn3CC)c2)[nH]c(=O)c(C(=O)O)c1O", "12.5 to 150 µg/mL"),
    ("CCc1c(-c2ccc3c(c2)cc2n3CCNC2)[nH]c(=O)c(C(=O)O)c1O", "3.5 to 12.5 µg/mL"),
    ("CCc1cc(C(=O)O)c(=O)[nH]c1-c1ccc2c(c1)cc(CN1CC[C@@H](F)C1)n2C", "12.5 to 150 µg/mL"),
    ("CCc1c(-c2ccc3c(c2)cc(CN2CC[C@@H](F)C2)n3C)[nH]c(=O)c(C(=O)O)c1O", "3.5 to 12.5 µg/mL"),
    ("CCCCCCCNCc1cc2cc(-c3[nH]c(=O)c(C(=O)O)c(O)c3CC)ccc2n1C", "12.5 to 150 µg/mL"),
    ("CCCCCCNCc1cc2cc(-c3[nH]c(=O)c(C(=O)O)c(O)c3CC)ccc2n1C", "12.5 to 150 µg/mL"),
]
